Recorded measurements of protein stability index, one per entry
B1: MYOZ1 (parent)
chain: FSDSSMDHFQKFLPTVGGQLGTAG

variants of: B1; experiment: protein stability index of a GFP-peptide fusion (GPS, HEK-293T) (PSI 1-6); higher = more stable; conditions: c terminus: a fixed tail appended;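 also: lentivirally expressed fusions sorted by FACS into six bins by GFP to DsRed ratio, PSI derived from sequencing read proportions per bin multiplied by bin number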
Form rule: numeric answer, no unit written next to it.

Answered cases to consult:
[[record]]
mutation_id = "G24A"
value_type = "protein stability index"
numeric_result = 1.71

[[record]]
mutation_id = "L20Y"
value_type = "protein stability index"
numeric_result = 2.27

[[record]]
mutation_id = "G17Q"
value_type = "protein stability index"
numeric_result = 2.53


In: Which value of protein stability index has been reported for F9Y in the records?
Out: 2.78

In: Ok, now A23R
Out: 2.95

In: Ok, now K11I
Out: 2.12

In: Ok, now M6A
Out: 2.65

In: Ok, now G24N
Out: 2.03

In: Ok, now S4R
Out: 2.51

In: Ok, now Q10M
Out: 2.02

In: Ok, now M6D
Out: 3.22

In: Ok, now H8W
Out: 2.22

In: Ok, now L13F
Out: 3.09
